target: human ether-à-go-go-related gene (hERG) potassium channel (human, UniProt Q12809); experiment: primary screen, population patch clamp on CHO cells stably expressing hERG; higher = less effect of the substance;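 note: peak tail current of the secondary pulse compared with the same well before compound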
Sequence (Q12809 whole entry, looked up): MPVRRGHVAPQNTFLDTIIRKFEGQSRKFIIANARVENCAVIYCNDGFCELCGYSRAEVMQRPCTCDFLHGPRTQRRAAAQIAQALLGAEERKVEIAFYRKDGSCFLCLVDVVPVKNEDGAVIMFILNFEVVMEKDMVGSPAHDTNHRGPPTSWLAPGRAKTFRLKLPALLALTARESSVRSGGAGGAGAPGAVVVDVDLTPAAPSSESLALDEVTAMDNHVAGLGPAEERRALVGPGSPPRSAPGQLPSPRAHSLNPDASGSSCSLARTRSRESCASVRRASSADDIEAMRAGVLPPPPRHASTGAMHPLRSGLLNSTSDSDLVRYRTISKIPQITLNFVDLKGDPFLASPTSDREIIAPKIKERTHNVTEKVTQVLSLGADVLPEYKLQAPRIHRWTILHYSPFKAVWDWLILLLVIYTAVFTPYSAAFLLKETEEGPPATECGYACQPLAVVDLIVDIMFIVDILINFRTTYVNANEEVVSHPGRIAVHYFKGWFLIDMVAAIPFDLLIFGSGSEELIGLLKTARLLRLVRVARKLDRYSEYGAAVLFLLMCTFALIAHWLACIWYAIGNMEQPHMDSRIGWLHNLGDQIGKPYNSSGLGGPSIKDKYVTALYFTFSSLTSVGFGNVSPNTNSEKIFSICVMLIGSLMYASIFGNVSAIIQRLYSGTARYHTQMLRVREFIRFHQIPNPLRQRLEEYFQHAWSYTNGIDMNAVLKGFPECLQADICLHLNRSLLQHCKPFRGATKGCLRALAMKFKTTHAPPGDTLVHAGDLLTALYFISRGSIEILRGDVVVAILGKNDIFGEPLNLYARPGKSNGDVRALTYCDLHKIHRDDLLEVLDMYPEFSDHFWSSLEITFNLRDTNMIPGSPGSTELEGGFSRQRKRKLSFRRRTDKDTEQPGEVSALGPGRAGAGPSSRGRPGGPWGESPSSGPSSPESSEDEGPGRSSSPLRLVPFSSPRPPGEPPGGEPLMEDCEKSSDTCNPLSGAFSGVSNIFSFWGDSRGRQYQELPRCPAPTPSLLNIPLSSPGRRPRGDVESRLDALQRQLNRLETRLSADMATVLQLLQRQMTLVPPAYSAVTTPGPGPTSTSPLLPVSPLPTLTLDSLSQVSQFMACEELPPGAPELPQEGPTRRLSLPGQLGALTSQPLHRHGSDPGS
Out of some 310,000 compounds screened, about 14,000 (4.5%) showed an effect of 50% or more. Effects have a minus sign here. Many of the other results were omitted from the sample, so strong results are more common in it than they were.
Below is a list of entries, each paired with its recorded hERG current change (%, negative = inhibition) at 10uM value.
property: hERG current change (%, negative = inhibition) at 10uM (%)

- compound: "CCOC(=O)CN1C(=O)SC(Nc2ccc(C)cc2)C1=O (centres unmarked)"
  unit-string: "%"
  test-value: 27.1
- compound: "O=C(CCCCl)Nc1nc(-c2ccc3c(c2)OCCO3)cs1"
  unit-string: "%"
  test-value: 9.6
- compound: "O=C(CN(C(=O)c1csnn1)c1cccc2ccccc12)NCc1ccccc1"
  unit-string: "%"
  test-value: 0.271
- compound: "Cc1ccc(N(C(=O)CNC(=O)c2ccco2)C(C(=O)NC2CCCC2)c2ccncc2)c(C)c1 (centres unmarked)"
  unit-string: "%"
  test-value: 14.6
- compound: "COc1cccc2c1OCC(CN1CCN(C3CCCCC3)C(CCO)C1)=C2 (centres unmarked)"
  unit-string: "%"
  test-value: -17
- compound: "COc1ccc2c(c1)C=C(CN1CCN(Cc3ccccc3C)C(CCO)C1)CO2 (centres unmarked)"
  unit-string: "%"
  test-value: -25.6
- compound: "Cc1cccc(CCNC(=O)CCS(=O)(=O)c2ccc(Br)cc2)c1"
  unit-string: "%"
  test-value: 8.8
- compound: "O=C(Cc1ccccc1[N+](=O)[O-])Nc1ccccc1C(=O)N1CCCC1"
  unit-string: "%"
  test-value: 23.2
- compound: "COCCCNC(=O)CCn1c(=O)c2ccccc2n(CC(=O)Nc2ccccc2C)c1=O"
  unit-string: "%"
  test-value: 9.98
- compound: "COc1ccc(N2C(=O)C3CCCN3C2c2cccc(C)c2)cc1Cl (centres unmarked)"
  unit-string: "%"
  test-value: -31.3
- compound: "Cc1ccc(C)c(N(C(=O)CCC(=O)Nc2cc(C)on2)C(C(=O)NC2CCCC2)c2ccco2)c1 (centres unmarked)"
  unit-string: "%"
  test-value: 10.2
- compound: "CCc1noc(C)c1C(=O)N1CCCC(CCC(=O)NCc2ccc(F)c(F)c2)C1 (centres unmarked)"
  unit-string: "%"
  test-value: -0.135
- compound: "COc1ccc2c(c1)C=C(CN1CCN(C3CCCC3)C(CCO)C1)CO2 (centres unmarked)"
  unit-string: "%"
  test-value: -68.2
- compound: "CCCC(=O)Nc1ccc2c(c1)nc(CCN1CCN(c3ccccn3)CC1)n2C"
  unit-string: "%"
  test-value: -25.5

###

molecular target: human ether-à-go-go-related gene (hERG) potassium channel (human); assay: primary screen, population patch clamp on CHO cells stably expressing hERG; higher = less effect of the substance;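 note: peak tail current of the secondary pulse compared with the same well before compound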
In all, about 310,000 compounds went through this assay and about 14,000 (4.5%) showed an effect of 50% or more. Effects have a minus sign here. Many of the other results were omitted from the sample, so strong results are more common in it than they were.
Below is a list of entries, each paired with its recorded hERG current change (%, negative = inhibition) at 10uM value.
property: hERG current change (%, negative = inhibition) at 10uM (%)

- compound: "COc1cccc(-c2sc3ccc(OC)cc3c2C#CCC(C)O)c1 (stereo not drawn)"
  test-value: 25.8
- compound: "CCC(=O)Oc1ccc2c(c1)OC1(OC(C)=O)OC(C)CC1=C2C (stereo not drawn)"
  test-value: -5.19
- compound: "Cc1nnc(SCC(=O)Nc2ccc(-c3nc4ccccc4s3)cc2)s1"
  test-value: 23.4

###

molecular target: human ether-à-go-go-related gene (hERG) potassium channel (human, UniProt Q12809); experiment: primary screen, population patch clamp on CHO cells stably expressing hERG; higher = less effect of the substance;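 note: peak tail current of the secondary pulse compared with the same well before compound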
Screen size: about 310,000 compounds; about 14,000 (4.5%) showed an effect of 50% or more. The effect is printed as a negative number. Shown is part of a subset that was picked to be rich in strong results.
property: hERG current change (%, negative = inhibition) at 10uM (%)

- compound: "CN1CCN(CCOC2c3ccccc3CSc3ccc(Cl)cc32)CC1.O=C(O)/C=C\\C(=O)O (stereo not drawn)"
  system: "human ether-à-go-go-related gene (hERG) potassium channel (human, UniProt Q12809)"
  unit-string: "%"
  test-value: -57.2
- compound: "O=C(O)c1ccc(/C=N/NC(=O)C2CC2(c2ccccc2)c2ccccc2)cc1 (stereo not drawn)"
  system: "human ether-à-go-go-related gene (hERG) potassium channel (human, UniProt Q12809)"
  unit-string: "%"
  test-value: 17.9
- compound: "COc1ccc(N2C(=O)C3C(C2=O)C3(c2ccccc2)c2ccccc2)cc1 (stereo not drawn)"
  system: "human ether-à-go-go-related gene (hERG) potassium channel (human, UniProt Q12809)"
  unit-string: "%"
  test-value: 0.0654
- compound: "CC1=C(C(=O)OCc2ccccc2)C(c2ccc(C)o2)C2=C(CCCC2=O)N1 (stereo not drawn)"
  system: "human ether-à-go-go-related gene (hERG) potassium channel (human, UniProt Q12809)"
  unit-string: "%"
  test-value: -23.7
- compound: "Fc1ccc(/C=N/NC(=S)Nc2ccc(Cl)cc2)cc1F"
  system: "human ether-à-go-go-related gene (hERG) potassium channel (human, UniProt Q12809)"
  unit-string: "%"
  test-value: 9.62
- compound: "Clc1ccc2c(c1)C(C1=NCCN1)c1ccccc1CS2.O=C(O)/C=C\\C(=O)O (stereo not drawn)"
  system: "human ether-à-go-go-related gene (hERG) potassium channel (human, UniProt Q12809)"
  unit-string: "%"
  test-value: -8.02
- compound: "CCN(CC)c1nc(-c2ccccc2)nc2ccccc12.Cl"
  system: "human ether-à-go-go-related gene (hERG) potassium channel (human, UniProt Q12809)"
  unit-string: "%"
  test-value: -32.5
- compound: "C=CCNC(=S)NNC(=O)c1ccncc1"
  system: "human ether-à-go-go-related gene (hERG) potassium channel (human, UniProt Q12809)"
  unit-string: "%"
  test-value: 1.85
- compound: "Cc1cccc2sc(NC(=O)c3ccc(OCC4CCCO4)cc3)nc12 (stereo not drawn)"
  system: "human ether-à-go-go-related gene (hERG) potassium channel (human, UniProt Q12809)"
  unit-string: "%"
  test-value: 9.85
- compound: "Cc1cccc(NC(=O)Cn2cnc3c(cnn3-c3ccc(F)cc3)c2=O)c1C"
  system: "human ether-à-go-go-related gene (hERG) potassium channel (human, UniProt Q12809)"
  unit-string: "%"
  test-value: 2.99
- compound: "Cc1ccc(-n2cc(CN3CCCN(C=O)CC3)c(-c3ccc(F)cc3)n2)cc1"
  system: "human ether-à-go-go-related gene (hERG) potassium channel (human, UniProt Q12809)"
  unit-string: "%"
  test-value: -18.7
- compound: "COc1ccc(-c2nn(-c3ccccc3F)cc2CNCCn2nc(C)cc2C)cc1"
  system: "human ether-à-go-go-related gene (hERG) potassium channel (human, UniProt Q12809)"
  unit-string: "%"
  test-value: -50.2
- compound: "Cc1ccc(C)c(NC(=S)N2CCC(NC(=O)c3cccc(F)c3)CC2)c1"
  system: "human ether-à-go-go-related gene (hERG) potassium channel (human, UniProt Q12809)"
  unit-string: "%"
  test-value: 1.08
- compound: "Cc1ccc(-n2cc(CN(C)Cc3nccn3C)c(-c3ccc(F)cc3)n2)cc1"
  system: "human ether-à-go-go-related gene (hERG) potassium channel (human, UniProt Q12809)"
  unit-string: "%"
  test-value: -37.6
- compound: "COc1cccc(C(c2sc3ncnn3c2O)N2CC(C)OC(C)C2)c1 (stereo not drawn)"
  system: "human ether-à-go-go-related gene (hERG) potassium channel (human, UniProt Q12809)"
  unit-string: "%"
  test-value: 0.441
- compound: "Cc1cccc(NS(=O)(=O)c2ccc(C(=O)NCCCN3CCCC3=O)cc2)c1C"
  system: "human ether-à-go-go-related gene (hERG) potassium channel (human, UniProt Q12809)"
  unit-string: "%"
  test-value: 4.04
- compound: "CCN1CC(CN(C)Cc2cn(-c3cccc(C)c3)nc2-c2cccc(F)c2)CC1=O (stereo not drawn)"
  system: "human ether-à-go-go-related gene (hERG) potassium channel (human, UniProt Q12809)"
  unit-string: "%"
  test-value: -31.7
- compound: "O=C(CN1CCN(C(=O)c2c(F)cccc2F)CC1)Nc1ccccc1C(F)(F)F"
  system: "human ether-à-go-go-related gene (hERG) potassium channel (human, UniProt Q12809)"
  unit-string: "%"
  test-value: -20.9

###

target: human ether-à-go-go-related gene (hERG) potassium channel (human); assay: primary screen, population patch clamp on CHO cells stably expressing hERG; higher = less effect of the substance;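 note: peak tail current of the secondary pulse compared with the same well before compound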
Among all 310,000 compounds or so, about 14,000 (4.5%) showed an effect of 50% or more. Effects have a minus sign here. This is one part of a sample in which strong results are shown more often than they occur.
Below is a list of entries, each paired with its recorded hERG current change (%, negative = inhibition) at 10uM value.
property: hERG current change (%, negative = inhibition) at 10uM (%)

- compound: "CC(C)N1CCC(N2CCN(Cc3cccnc3)CC2CCO)CC1 (stereo not shown)"
  test-value: 20.3
- compound: "NC(=O)CSc1nc2c(sc3ccccc32)c(=O)n1CCCN1CCOCC1"
  test-value: -52.8
- compound: "CC(=O)c1sc(NC(=O)c2oc3ccc(F)cc3c2C)nc1C"
  test-value: 0.318
- compound: "CC(C)N1CCC(N2CCN(Cc3ccc4nonc4c3)CC2CCO)CC1 (stereo not shown)"
  test-value: -27.5
- compound: "CC1(C)CC(=O)C(Sc2ccccc2)=C(O)C1"
  test-value: 15.8
- compound: "COc1ccc(CCNCC(O)c2ccccc2)cc1.O=C(O)C(=O)O (stereo not shown)"
  test-value: -11.4
- compound: "Cc1cccc(C)c1OCC(O)CNC(C)c1ccccc1.Cl (stereo not shown)"
  test-value: -13.7
- compound: "CCC1CSC(Nc2ccc(C(=O)/C=C/c3cccc(C)c3)cc2)=N1 (stereo not shown)"
  test-value: 14.4
- compound: "CCC1CSC(Nc2ccc(C(=O)/C=C/c3ccc(OC)c(OC)c3)cc2)=N1 (stereo not shown)"
  test-value: -52.4
- compound: "Cl.NS(=O)(=O)c1ccc(CCNC/C=C/c2ccccc2)cc1"
  test-value: -48.7
- compound: "CCC1CSC(Nc2ccc(C(=O)/C=C/c3ccc(Br)cc3)cc2)=N1 (stereo not shown)"
  test-value: 0.372
- compound: "O=C(CSc1nc2c(sc3ccccc32)c(=O)n1CCCN1CCOCC1)NC1CCCC1"
  test-value: -64.7
- compound: "COc1ccc(CNC/C=C/c2ccccc2)cc1.Cl"
  test-value: -42.2
- compound: "CCOC(=O)CSc1nc2c(sc3ccc([N+](=O)[O-])cc32)c(=O)n1Cc1ccco1"
  test-value: -32.4
- compound: "O=C(/C=C/Nc1ccccc1F)c1cccs1"
  test-value: 1.08
- compound: "O=S(=O)(Cc1ccccc1Cl)c1ncn[nH]1"
  test-value: 14.2
- compound: "CC(C)CCOP(N)(=O)Oc1ccccc1 (stereo not shown)"
  test-value: 9.05
- compound: "COC(=O)c1cn(NC(=O)Cn2nc([N+](=O)[O-])c(Cl)c2C)c(=O)c2ccccc12"
  test-value: 18.6
- compound: "CCCCn1c(SCC(N)=O)nc2c(sc3ccccc32)c1=O"
  test-value: -12.4
- compound: "CCC(C)NC(=O)CSc1nc2c(sc3ccccc32)c(=O)n1CCCN1CCOCC1 (stereo not shown)"
  test-value: -53.4
- compound: "Cc1ccc(C(OCC(O)CNC(CO)C(O)c2ccc([N+](=O)[O-])cc2)c2ccccc2)cc1 (stereo not shown)"
  test-value: -22.4
- compound: "COc1ccc(S(=O)(=O)NCc2ccccc2)cc1Br"
  test-value: 6.25
- compound: "CC(C)c1ccc(OCC(=O)Nc2ccc(S(=O)(=O)Nc3ccccn3)cc2)cc1"
  test-value: 10.7
- compound: "CC(C)N1CCC(N2CCN(CCCc3ccccc3)CC2CCO)CC1 (stereo not shown)"
  test-value: 10.1
- compound: "CC1(C)CCC(=O)C=C1Nc1ccc(F)c(Cl)c1"
  test-value: 7.56
- compound: "COc1cccc(OC)c1C(=O)N1CCN(Cc2ccccc2C)CC1"
  test-value: -0.823
- compound: "COc1ccc(C(OCC(O)CNCCc2ccc(S(N)(=O)=O)cc2)c2ccc(OC)cc2)cc1 (stereo not shown)"
  test-value: -43.2
- compound: "COc1ccc(C(OCC(O)CNCCc2ccccc2)c2ccc(OC)cc2)cc1.O=C(O)C(=O)O (stereo not shown)"
  test-value: -63.7
- compound: "O=C(COc1ccccc1-c1ccccc1)NN=C1CCCC1"
  test-value: -6.03
- compound: "Cc1[nH]c2ccccc2c(=O)c1SC(F)(F)C(F)C(F)(F)F (stereo not shown)"
  test-value: -5.97
- compound: "Cc1cc(C(=O)NCCCn2ccnc2)sc1-c1ccccc1"
  test-value: -10.3
